Biological target: Programmed cell death protein 4 (Homo sapiens)
Sequence (Q53EL6 whole entry): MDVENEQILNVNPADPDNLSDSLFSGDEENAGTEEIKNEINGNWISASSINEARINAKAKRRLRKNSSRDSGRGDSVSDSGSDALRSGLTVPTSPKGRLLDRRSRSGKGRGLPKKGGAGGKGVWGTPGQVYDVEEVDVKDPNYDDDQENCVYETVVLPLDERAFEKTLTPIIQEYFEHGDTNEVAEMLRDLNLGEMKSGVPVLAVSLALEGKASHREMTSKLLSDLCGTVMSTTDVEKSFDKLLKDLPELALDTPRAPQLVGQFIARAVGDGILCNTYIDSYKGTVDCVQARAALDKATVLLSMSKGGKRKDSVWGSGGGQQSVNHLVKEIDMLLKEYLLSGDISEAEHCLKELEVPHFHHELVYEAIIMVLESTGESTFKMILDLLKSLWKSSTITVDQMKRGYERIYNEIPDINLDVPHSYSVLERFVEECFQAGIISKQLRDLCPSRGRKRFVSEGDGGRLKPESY
Assay: Inhibition of TPA-induced degradation of Pdcd4 (amino acid 39-91) expressed in human HEK293 cells assessed as minimum compound concentration required for 50% recovery of Pdcd4-luciferase signal incubated for 8 hrs by luciferase reporter gene assay
Kindly supply the reported EC50 values for the records listed here.
Reply numerically in µM, unit not repeated.

Reported EC50 ( CCCCCCCCCCCCCCC[C@@H](O)C[C@H](O)C[C@H](O)C[C@H](O)C[C@H](O)C[C@H]1CC=CC(=O)O1 ) = 4.9

Reported EC50 ( CCCCCCCCCCCCCCC[C@@H](O)C[C@H](O)C[C@H](O)C[C@H](O)C[C@H](O)C[C@@H]1OC(=O)C=C[C@@H]1O ) = 1.6

Reported EC50 ( CCCCCCCCCCCCCCC[C@H](C[C@H](O)C[C@H](O)C[C@H](O)C[C@H](O)C[C@@H]1OC(=O)C=C[C@@H]1O)OC(C)=O ) = 1.5

Reported EC50 ( CCCCCCCCCCCCCCC[C@@H](O)C[C@H](O)C[C@H](O)C[C@H](O)C[C@@H]1OC(=O)C=C[C@@H]1O ) = 1.8

Reported EC50 ( CCCCCCCCCCCCCCC[C@H](C[C@H](O)C[C@H](O)C[C@H](O)C[C@H](O)C[C@H]1CC=CC(=O)O1)OC(C)=O ) = 3

Reported EC50 ( CO[C@H]1C[C@@H]2CC[C@@H](C)[C@@](O)(O2)C(=O)C(=O)N2CCCC[C@H]2C(=O)O[C@H]([C@H](C)C[C@@H]2CC[C@@H](O)[C@H](OC)C2)CC(=O)[C@H](C)/C=C(\C)[C@@H](O)[C@@H](OC)C(=O)[C@H](C)C[C@H](C)/C=C/C=C/C=C/1C ) = 0.05
